B1: CPEB3 Ribozyme (parent)
chain: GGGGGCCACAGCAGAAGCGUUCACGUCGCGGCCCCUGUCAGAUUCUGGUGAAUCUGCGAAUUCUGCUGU

variants of: B1; experiment: self-cleavage, relative activity (ratio to wild type); higher = more cleavage; co-transcriptional
reported_endpoint: self-cleavage
Reply briefly: the number, and no unit.

Known self-cleavage results, listed for orientation:
entry_sequence | self-cleavage
GGGGGCCACAGGAGAAGAGUUCACGUCGCGGCCCCUGUCAGAUUCUGGUGAAUCUGCGAAUUCUGCUGU [C12G C18A] | 0.185
GGGGGCCACAGCAGAAGCGUUCACGUCGCGGCCUCUGUCAGAUUCUGGUGAAGCUGCGAAUUCUGCUGU [C34U U53G] | 0.728
GGGGCCCACAGCAGAAGCGUUUACGUCGCGGCCCCUGUCAGAUUCUGGUGAAUCUGCGAAUUCUGCUGU [G5C C22U] | 0.0752
GGGGGCCACAGCAGAAGUGUUCACGUCGCGGCCCCUGUAAGAUUCUGGUGAAUCUGCGAAUUCUGCUGU [C18U C39A] | 0.387
GGGGGCCACAGCAGAAGCGAUCACGUCGCGGCCCCUGUCAGAUUCUGGUGAAUUUGCGAAUUCUGCUGU [U20A C54U] | 0.124
GGGGGCCACUGCACAAGCGUUCACGUCGCGGCCCCUGUCAGAUUCUGGUGAAUCUGCGAAUUCUGCUGU [A10U G14C] | 0.482
GGGGGCCACAGCAGAAGGGUUCACGUCGCGGCCCCUGUCAGAUUCUGGUGAAUCUGCGACUUCUGCUGU [C18G A60C] | 0.0758
GGGGGCCACAGCAGAAGAGUUCACGUCGCGGCCCCUGUCAGAAUCUGGUGAAUCUGCGAAUUCUGCUGU [C18A U43A] | 0.117
GGGGGCCCCAGCAGAAGCGUUCACGUCGCGGCCCCUGUCAGAUUCUGGUGAAUCUGCGAAUUCCGCUGU [A8C U64C] | 0.86
GGGUGCCACAGCAGAAGCGUUCACGUCGCGGUCCCUGUCAGAUUCUGGUGAAUCUGCGAAUUCUGCUGU [G4U C32U] | 0.436

Query: Field request: self-cleavage | item: UGGGGCCCCAGCAGAAGCGUUCACGUCGCGGCCCCUGUCAGAUUCUGGUGAAUCUGCGAAUUCUGCUGU [G1U A8C]
Result: 0.0263

Query: Cool, now GGGGGCCACAGCAGAAGCGUUCACGUCGCGGCCCCUGUCAGAUUCUGGUGAAUCUACGUAUUCUGCUGU [G56A A59U]
Result: 0.735

Query: Continue with GGGGGCCACAGCAGAAGCGUUCACUUCACGGCCCCUGUCAGAUUCUGGUGAAUCUGCGAAUUCUGCUGU [G25U G28A]
Result: 0.141

Query: Same lookup for GGGGUCCACAGCAGAAGCGUUCACGUCGCCGCCCCUGUCAGAUUCUGGUGAAUCUGCGAAUUCUGCUGU [G5U G30C] , please.
Result: 0.08

Query: Further, for GAGGGCCACAGCAGAAGCGUUCACGUCGCGGCCCCUGUCAGAUUCUGGUGAAUCUCCGAAUUCUGCUGU [G2A G56C] ?
Result: 0.0906

Query: Follow-up entry: GGGGGCCACAGCAGAAGCGUACACGUCGCGGCCCCUGUCAGAUUCUGUUGAAUCUGCGAAUUCUGCUGU [U21A G48U]
Result: 0.978

Query: // same read-out, input: GGGGGCCACAGCAGAAGCGUUCGCGUCGCGGCCCCUGUCAGAUCCUGGUGAAUCUGCGAAUUCUGCUGU [A23G U44C]
Result: 0.904

Query: Request: GGGGGCCACAGCAGAAGCGUUCACGACGCGGCCCCUGUCGGAUUCUGGUGAAUCUGCGAAUUCUGCUGU [U26A A40G]
Result: 0.7

Query: Also, GGGGGCCACAGCAUAAGCGUUCACGUCGCCGCCCCUGUCAGAUUCUGGUGAAUCUGCGAAUUCUGCUGU [G14U G30C] please.
Result: 0.187

Query: Now the same for GGGGGCCACAGCAGAAGCGUUCAAGUCGUGGCCCCUGUCAGAUUCUGGUGAAUCUGCGAAUUCUGCUGU [C24A C29U]
Result: 0.158

Query: // same read-out, input: GGGGCCCACAGCAGAAGCGUUCACGUCGCGGCCCCUGUCAGAUUCUGGUCAAUCUGCGAAUUCUGCUGU [G5C G50C]
Result: 0.182

Query: Consider next the variant GGGGGCCACAGCAUAAGCGUUCACGUCGCGGCCCCUGUCAGUUUCUGGUGAAUCUGCGAAUUCUGCUGU [G14U A42U] in the same way.
Result: 0.425

Query: Entry to check: GGGGGCCACAGCAGAAGCGUUCACGUCGCGGCCCCUGUCAGAUUCUAGUGAAUCUGAGAAUUCUGCUGU [G47A C57A]
Result: 0.347

Query: And then GGGGGCCACAGCAGAAGCGUUUACGUCGCGGCCCCUGUCAGAUUCUGGGGAAUCUGCGAAUUCUGCUGU [C22U U49G] , what is it?
Result: 0.247

Query: # iterate: GGGGGCCACAGCAGAAGCGUUCACGUCGCGGCCUCUGUCAGAUUCUGGUGAAUUUGCGAAUUCUGCUGU [C34U C54U]
Result: 0.985

Query: Same thing, different variant: GGGGGCGACAGCAGAAGCGAUCACGUCGCGGCCCCUGUCAGAUUCUGGUGAAUCUGCGAAUUCUGCUGU [C7G U20A]
Result: 0.163

Query: Similarly, GGGGGCGACAGCAGAAGCGUUCACGUCGCGGCCCCUGUCAGAUUCUGGUGAAUCUGCGAAUUAUGCUGU [C7G C63A] ?
Result: 0.237

Query: What do you have for GGGGGCCACAGCAGAAGCGUUCACGUCGCGGCUCUUGUCAGAUUCUGGUGAAUCUGCGAAUUCUGCUGU [C33U C35U] ?
Result: 0.884

Values were extracted from the RNAGym collection of RNA variant scans (doi:10.7554/elife.80360).
